Biological target: Anti-PSMA Fab (006 PSMA Fab)
Assay: clonal phage ELISA on biotinylated PSMA Fab captured on neutravidin; PSMA antigen as competitor; anti-M13-HRP detection
Where no end group is shown, it is not given here.
endpointLabel: phage binding ELISA signal (Anti-PSMA Fab, wells pre-incubated with PSMA antigen)
One number for each entry.

Quickly give me recorded phage binding ELISA signal (Anti-PSMA Fab, wells pre-incubated with PSMA antigen) for EWKWCTPPWMCQYE [Phage-2308]
0.0874

Return reported phage binding ELISA signal (Anti-PSMA Fab, wells pre-incubated with PSMA antigen). Input binder: WENWCTPEWMCNGF (cysteine pairing not given here; also: displayed on bacteriophage by fusion to pIII) [Phage-2298]
0.0767

Please look at this binder and report its phage binding ELISA signal (Anti-PSMA Fab, wells pre-incubated with PSMA antigen): MDNWCTPPWMCHGF [Phage-2299]
0.0898

Kindly review the next binder as well.
Give a short answer stating reported phage binding ELISA signal (Anti-PSMA Fab, wells pre-incubated with PSMA antigen) for EFKMCIPQWMCQHQ [Phage-2312] .
0.0622
